Recorded values, source patent US4604406A.

Target: UniProt P16116
Experiment: % inhibition in vitro at 10^-7 M (aldose reductase inhibition)
Format: biochemical
Item-by-item account of inhibition at 0.1 µM
measureName: inhibition at 0.1 µM (%)

COc1ccc2c(C(=O)N(C)CC(=O)O)cccc2c1C(F)(F)C(F)(F)F : 56
COc1ccc2c(C(=S)N(C)CC(=O)O)cccc2c1C(F)(F)C(F)(F)C(F)(F)C(F)(F)C(F)(F)C(F)(F)F : 40
COc1ccc2c(C(=S)N(C)CC(=O)O)cccc2c1C(F)(F)C(F)(F)F : 71
COc1ccc2c(C(=O)N(C)CC(=O)O)cccc2c1C(F)(F)C(F)(F)C(F)(F)F : 63
COc1ccc2c(C(=O)N(C)CC(=O)O)cccc2c1C(F)(F)C(F)(F)C(F)(F)C(F)(F)C(F)(F)C(F)(F)F : 47
COc1ccc2c(C(=S)N(C)CC(=O)O)cccc2c1C(F)(F)C(F)(F)C(F)(F)F : 75
COc1ccc2c(C(=O)N(C)CC(=O)O)cccc2c1C(F)(F)F [Compound 8, reference compound] : 57
